system: U2OS; test: Incucyte cell viability with U2OS; assay type: toxicity, cell-based; settings: human, 0 h, 10 µM, compound concentration 10 uM, replicate number 1, timepoint 0 hours; also: unitless GR value; below 1 slowed growth and below 0 cell loss
Where a SMILES comes first, the peptide text is derived from it. [ ]: non-standard residue; d: D form. The star is where a group is joined. dPhe(4-NHCONH2) = NC(=O)Nc1ccc(C[C@@H](N)C(=O)O)cc1; Dihydroorotyl(S) = O=C1C[C@@H](C(=O)*)NC(=O)N1; dPhe(4-Cl) = N[C@H](Cc1ccc(Cl)cc1)C(=O)O; Phe(4-NH2) = Nc1ccc(C[C@H](N)C(=O)O)cc1; d2Nal = N[C@H](Cc1ccc2ccccc2c1)C(=O)O; Lys(iPr) = CC(C)NCCCC[C@H](N)C(=O)O; d3Pal = N[C@H](Cc1cccnc1)C(=O)O
ENDPOINT: Growth Rate
Answers are plain numbers.

Please review the following examples before continuing.
{"columns": ["MOLECULE", "RESULT VALUE"],
 "data": [
  ["C[C@H](NC(=O)CNC(=O)c1cccc(Cl)c1)c1ccccc1", -0.7],
  ["CCCCCCCCc1ccc(CC[C@](N)(CO)COP(=O)(O)O)cc1", 0.2],
  ["Cc1noc(C)c1-c1cnc2c(-c3ccc(C(=O)O)cc3)cn([C@@H](C)c3ccccn3)c2c1", -0.01],
  ["COc1cc(Nc2ncc3c(n2)-c2ccc(Cl)cc2C(c2c(F)cccc2OC)=NC3)ccc1C(=O)O", -0.14],
  ["CCCCC[C@H](O)/C=C/[C@H]1[C@H](O)CC(=O)[C@@H]1CCCCCCC(=O)O", 0.29]
]}

Look up Growth Rate for the entries below, preserving their order.
1. N[C@@]1(C(=O)O)CO[C@H]2[C@H](C(=O)O)[C@H]21
2. CC(=O)N[C@H](Cc1ccc2ccccc2c1)C(=O)N[C@H](Cc1ccc(Cl)cc1)C(=O)N[C@H](Cc1cccnc1)C(=O)N[C@@H](CO)C(=O)N[C@@H](Cc1ccc(NC(=O)[C@@H]2CC(=O)NC(=O)N2)cc1)C(=O)N[C@H](Cc1ccc(NC(N)=O)cc1)C(=O)N[C@@H](CC(C)C)C(=O)N[C@@H](CCCCNC(C)C)C(=O)N1CCC[C@H]1C(=O)N[C@H](C)C(N)=O [DEGARELIX] (Ac-[d2Nal][dPhe(4-Cl)][d3Pal]S[Phe(4-NH2)](Dihydroorotyl(S))[dPhe(4-NHCONH2)]L[Lys(iPr)]P[dA]-NH2)

1: -0.44; 2: -1

====

system: U2OS; test: Incucyte cell viability with U2OS; assay type: toxicity, cell-based; conditions: human, 6 h, 10 µM, compound concentration 10 uM, replicate number 1, timepoint 6 hours; also: unitless GR value; below 1 slowed growth and below 0 cell loss
Assign Growth Rate to each entry below.
Give bare numbers.

Please review the following examples before continuing.
{"columns": ["MOLECULE", "Growth Rate"],
 "data": [
  ["N#Cc1cc(F)cc(-c2nc(-c3ccc(F)cn3)no2)c1", -0.32],
  ["CN[C@@H]1CCc2[nH]c3ccc(C(N)=O)cc3c2C1.O.O=C(O)CCC(=O)O [FROVATRIPTAN SUCCINATE]", 0.73],
  ["Cc1ccc(OCC(O)C(C)NC(C)C)c2c1CCC2.Cl (configuration not stated)", 1],
  ["C[C@@H](OC[C@@]1(c2ccccc2)CC[C@]2(CCC(=O)N2)CN1)c1cc(C(F)(F)F)cc(C(F)(F)F)c1", -0.32],
  ["COc1cc(/C=C/C(=O)NCCn2c(C)cc3ccccc32)cc(OC)c1OC", 0.34],
  ["CCNC(=O)[C@H]1O[C@@H](n2cnc3c(N)ncnc32)[C@H](O)[C@@H]1O.O", 0.86],
  ["C[C@]1(O)CC[C@H]2[C@@H]3CCC4=CC(=O)CCC4=C3C=C[C@@]21C", 0.83],
  ["Cc1cc(NC(=O)NCCN2CCC(O)(Cc3ccccc3)CC2)c2ccccc2n1", 0.57],
  ["CC(C)NCC(O)COc1cccc2[nH]ccc12 (configuration not stated)", 0.52],
  ["Nc1nc(-c2ccco2)c2cnn(Cc3ccccc3F)c2n1", 0.66]
]}

Look up Growth Rate for the entries below, preserving their order.
1. CCCCCCNC(=O)Nc1ccc(S(=O)(=O)Nc2ccc(CCNC[C@H](O)COc3ccc(O)cc3)cc2)cc1
2. Cc1ccc(/C(=C\CN2CCCC2)c2ccccn2)cc1

[0.25, -0.54]

====

tested on: Fibroblast; assay: Incucyte cell viability with human fibroblast; type: toxicity, cell-based; conditions: 0 h, 10 µM, compound concentration 10 uM, replicate number 2, timepoint 0 hours; also: unitless GR value; below 1 slowed growth and below 0 cell loss
Where a SMILES comes first, the peptide text is derived from it. [ ]: non-standard residue; d: D form.
Label condition met when Growth Rate is strictly below 0.5; otherwise label condition not met.

{"columns": ["COMPOUND", "EXPERIMENTAL TARGET", "ANSWER LABEL"],
 "data": [
  ["COc1ccccc1N1CCN(C[C@@H](C(=O)NC(C)(C)C)c2ccccc2)CC1.Cl.Cl", "Fibroblast", "condition met"],
  ["CC(C)[C@H](C(=O)Nc1ccc(C(=O)NO)cc1)c1ccccc1 [AR-42]", "Fibroblast", "condition met"],
  ["CN(CCN1CCC(OC(=O)Nc2ccccc2-c2ccccc2)CC1)C(=O)c1ccc(CN2CCC(C(N)=O)CC2)cc1 [REVEFENACIN]", "Fibroblast", "condition not met"],
  ["Cc1ccccc1N1CCN(S(=O)(=O)C[C@]23CC[C@H](C[C@@H]2NC(=O)[C@@H](N)CCS(C)(=O)=O)C3(C)C)CC1.Cl", "Fibroblast", "condition not met"]
]}

Decide: Growth Rate of CN(C(=O)c1ccccc1)c1cc(N(C)c2ccc3c(c2)CCc2ccc(C(=O)NCCN4CCOCC4)cc2C3=O)ccc1F [FM-743] strictly below 0.5? condition not met

Decide: Growth Rate of C[N+]1(C)[C@@H]2C[C@@H](OC(=O)C(O)(c3cccs3)c3cccs3)C[C@H]1[C@@H]1O[C@@H]12.O.[Br-] [TIOTROPIUM BROMIDE] strictly below 0.5? condition met

Decide: Growth Rate of CCNC(=O)[C@H]1O[C@@H](n2cnc3c(N)ncnc32)[C@H](O)[C@@H]1O.O strictly below 0.5? condition met

Decide: Growth Rate of Cc1cc(CN)cc(C)c1-c1ncn(C)c1-c1cncn1C strictly below 0.5? condition met

Decide: Growth Rate of O=C(O)CCc1ccc(NCc2cccc(Oc3ccccc3)c2)cc1 [GW9508] strictly below 0.5? condition met

Decide: Growth Rate of CC(C)C[C@@H]1NC(=O)[C@@H](C(C)C)NC(=O)[C@@H]2CCCN2C(=O)[C@@H](CC(=O)O)NC(=O)[C@@H](Cc2c[nH]c3ccccc23)NC1=O [BQ-123] (cyclo(L[dW][dD]P[dV])) strictly below 0.5? condition met

Decide: Growth Rate of CC[C@H]1CN2CCc3cc(OC)c(OC)cc3[C@@H]2C[C@@H]1C[C@H]1NCCc2cc(OC)c(OC)cc21 [EMETINE] strictly below 0.5? condition not met

====

test system: Fibroblast; test: Incucyte cell viability with human fibroblast; format: toxicity, cell-based; details: 0 h, 10 µM, compound concentration 10 uM, replicate number 2, timepoint 0 hours; also: unitless GR value; below 1 slowed growth and below 0 cell loss
ENDPOINT: Growth Rate
One number for each entry.

Please review the following examples before continuing.
{"columns": ["MOLECULE", "RESULT VALUE"],
 "data": [
  ["O=C(NCC(=O)N1CC[C@H](N[C@H]2CC[C@@](O)(c3ccc(-c4ncccn4)cn3)CC2)C1)c1cccc(C(F)(F)F)c1", 0.71],
  ["O=C(NCc1ccc(F)cc1)N1CCN2C(=O)OC(c3ccccc3)(c3ccccc3)C2C1 (centres undefined)", 0.83],
  ["Cn1cnc(-c2cc3nccc(Oc4ccc(NC(=S)NC(=O)Cc5ccccc5)cc4F)c3s2)c1", 0.94],
  ["Nc1nccc(-c2ccn3c(N)nccc23)n1", -0.24],
  ["O=c1ccn([C@@H]2O[C@H](COP(=O)([O-])OP(=O)([O-])OP(=O)([O-])O)[C@@H](O)[C@H]2O)c(=O)[nH]1.[Na+].[Na+].[Na+]", 0.81]
]}

Look up Growth Rate for the entries below, preserving their order.
1. CCCN(CCc1cccs1)[C@H]1CCc2c(O)cccc2C1
2. CCc1cc2c(cc1-c1cccc(S(=O)(=O)F)c1)C(C)(C)c1[nH]c3cc(C#N)ccc3c1C2=O
3. CCCN[C@H]1CCc2nc(N)sc2C1.Cl.Cl
4. O=C1NC(=Nc2c(Cl)cccc2Cl)S/C1=C\c1ccc2nccnc2c1

1. -0.39
2. 0.22
3. -0.13
4. 0.72

====

tested on: Fibroblast; test: Incucyte cell viability with human fibroblast; format: toxicity, cell-based; settings: 6 h, 10 µM, compound concentration 10 uM, replicate number 2, timepoint 6 hours; also: unitless GR value; below 1 slowed growth and below 0 cell loss
ENDPOINT: Growth Rate
One number for each entry.

{"columns": ["COMPOUND", "Growth Rate"],
 "data": [
  ["CC(C)CC(=O)Nc1cncc(-c2ccc3[nH]nc(-c4nc5c(-c6cccc(F)c6)cncc5[nH]4)c3c2)c1 [LORECIVIVINT]", -0.06],
  ["COc1cc(Nc2ncc3c(n2)-c2ccc(Cl)cc2C(c2c(F)cccc2OC)=NC3)ccc1C(=O)O [ALISERTIB]", -0.09],
  ["Cc1cnc(-c2cc(N3CCN(C(=O)CCS(C)(=O)=O)CC3)ncc2Cl)c(C)c1", 0.05]
]}

For the next question, use this compound.
Requested read-out: Growth Rate. Entry: CSc1ccccc1N1CCN(CCCCCC(=O)NC2CCCc3ccccc32)CC1.Cl (centres undefined) 0.95
